Cited source: patent US5998414A

Target: human D4 receptor (D4.2 sub-type) (Homo sapiens, UniProt P21917, DEL265-296)
Construct: membrane homogenate
Sequence (P21917 with tags, fused parts or gaps DEL265-296): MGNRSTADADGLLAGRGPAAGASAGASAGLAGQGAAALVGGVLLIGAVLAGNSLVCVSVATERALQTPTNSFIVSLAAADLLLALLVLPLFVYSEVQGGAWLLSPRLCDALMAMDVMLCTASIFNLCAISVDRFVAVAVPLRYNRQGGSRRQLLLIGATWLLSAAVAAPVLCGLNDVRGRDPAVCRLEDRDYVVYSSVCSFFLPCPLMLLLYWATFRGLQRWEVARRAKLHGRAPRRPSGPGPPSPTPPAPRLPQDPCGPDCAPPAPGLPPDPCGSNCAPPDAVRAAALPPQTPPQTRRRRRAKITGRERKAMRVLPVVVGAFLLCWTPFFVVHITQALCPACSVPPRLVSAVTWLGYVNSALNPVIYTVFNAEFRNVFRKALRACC
Experiment: D4 receptor displacement binding assay (3H-spiperone, membrane homogenate of stably transfected HEK 298 cells)
Details: 3H-spiperone displacement, human D4.2, HEK cells; Cheng and Prustoff transformation of IC50; read-out: D4 affinity Ki
Quick rule for you: Ki under 7 nM gets yes (1), anything else gets no (0).

Please check: Ki for O=c1cccccc1N1CCN(Cc2ccc3ccccc3c2)CC1 , strictly under 7 nM or not?
yes (1)

Please check: Ki for O=c1cccccc1N1CCN(Cc2cccc(Br)c2)CC1 , strictly under 7 nM or not?
no (0)

Please check: Ki for O=c1cccccc1N1CCN(Cc2ccc(Br)cc2)CC1 , strictly under 7 nM or not?
yes (1)

Please check: Ki for O=c1cccccc1N1CCN(Cc2ccc([N+](=O)[O-])cc2)CC1 , strictly under 7 nM or not?
yes (1)

Please check: Ki for O=c1c(Br)ccccc1N1CCN(Cc2ccc3c(c2)OCO3)CC1 , strictly under 7 nM or not?
yes (1)

Please check: Ki for O=c1cccccc1N1CCN(Cc2cccc(C(F)(F)F)c2)CC1 , strictly under 7 nM or not?
no (0)

Please check: Ki for N#Cc1ccc(CN2CCN(c3cccccc3=O)CC2)cc1 , strictly under 7 nM or not?
no (0)

Please check: Ki for CCCCCCN1CCN(c2cccccc2=O)CC1 , strictly under 7 nM or not?
no (0)

Please check: Ki for O=c1cccccc1N1CCN(Cc2ccc(C(F)(F)F)cc2)CC1 , strictly under 7 nM or not?
yes (1)

Please check: Ki for O=c1c(-c2cccs2)ccccc1N1CCN(Cc2ccc3c(c2)OCO3)CC1 , strictly under 7 nM or not?
no (0)

Please check: Ki for O=c1cccccc1N1CCN(Cc2ccc(OC(F)(F)F)cc2)CC1 , strictly under 7 nM or not?
yes (1)

Please check: Ki for Cc1ccc(CN2CCN(c3cccccc3=O)CC2)cc1 , strictly under 7 nM or not?
yes (1)

Please check: Ki for COc1cccc(CN2CCN(c3cccccc3=O)CC2)c1 , strictly under 7 nM or not?
no (0)

* * *

Molecular target: human D2 receptor (short isoform) (Homo sapiens, UniProt P14416)
Sequence (P14416 with tags, fused parts or gaps DEL242-270): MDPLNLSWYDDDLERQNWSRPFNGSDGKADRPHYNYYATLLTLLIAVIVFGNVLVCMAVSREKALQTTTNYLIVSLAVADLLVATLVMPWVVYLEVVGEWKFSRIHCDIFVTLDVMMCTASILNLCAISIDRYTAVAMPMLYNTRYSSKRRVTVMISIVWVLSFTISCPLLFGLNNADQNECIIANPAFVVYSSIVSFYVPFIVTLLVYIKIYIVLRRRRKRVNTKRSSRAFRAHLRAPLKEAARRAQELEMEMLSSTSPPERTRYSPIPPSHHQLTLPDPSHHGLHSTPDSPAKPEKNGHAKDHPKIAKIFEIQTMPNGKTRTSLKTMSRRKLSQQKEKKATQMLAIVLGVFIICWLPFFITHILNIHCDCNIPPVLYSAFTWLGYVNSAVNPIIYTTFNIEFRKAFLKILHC
Assay: D2 receptor displacement binding assay (3H-spiperone, membrane homogenate of stably transfected GH4 C1 cells), used for D2/D4 selectivity
Conditions: ratio D2/D4, 3H-spiperone displacement
Quick rule for you: D2/D4 selectivity under 200 gets Y, anything else gets N.

Please check: D2/D4 selectivity for O=c1cccccc1N1CCN(Cc2ccc(C(F)(F)F)cc2)CC1 , strictly under 200 or not?
N

Please check: D2/D4 selectivity for COc1cccc(CN2CCN(c3cccccc3=O)CC2)c1 , strictly under 200 or not?
Y

Please check: D2/D4 selectivity for O=c1c(-c2cccs2)ccccc1N1CCN(Cc2ccc3c(c2)OCO3)CC1 , strictly under 200 or not?
Y

Please check: D2/D4 selectivity for O=c1cccccc1N1CCN(Cc2cccc(C(F)(F)F)c2)CC1 , strictly under 200 or not?
Y

Please check: D2/D4 selectivity for O=c1cccccc1N1CCN(Cc2cccc(Br)c2)CC1 , strictly under 200 or not?
Y

Please check: D2/D4 selectivity for O=c1c(Br)ccccc1N1CCN(Cc2ccc3c(c2)OCO3)CC1 , strictly under 200 or not?
Y

Please check: D2/D4 selectivity for CCCCCCN1CCN(c2cccccc2=O)CC1 , strictly under 200 or not?
Y

Please check: D2/D4 selectivity for O=c1cccccc1N1CCN(Cc2ccc3ccccc3c2)CC1 , strictly under 200 or not?
N

Please check: D2/D4 selectivity for O=c1cccccc1N1CCN(Cc2ccc3c(c2)OCO3)CC1 , strictly under 200 or not?
Y

Please check: D2/D4 selectivity for O=c1cccccc1N1CCN(Cc2ccc(OC(F)(F)F)cc2)CC1 , strictly under 200 or not?
N

Please check: D2/D4 selectivity for O=c1cccccc1N1CCN(Cc2ccc(Br)cc2)CC1 , strictly under 200 or not?
N

Please check: D2/D4 selectivity for O=c1cccccc1N1CCN(Cc2ccc([N+](=O)[O-])cc2)CC1 , strictly under 200 or not?
N

Please check: D2/D4 selectivity for Cc1ccc(CN2CCN(c3cccccc3=O)CC2)cc1 , strictly under 200 or not?
N

Please check: D2/D4 selectivity for N#Cc1ccc(CN2CCN(c3cccccc3=O)CC2)cc1 , strictly under 200 or not?
Y
